system name: PI3K γ (Homo sapiens)
Sequence (P48736 whole entry): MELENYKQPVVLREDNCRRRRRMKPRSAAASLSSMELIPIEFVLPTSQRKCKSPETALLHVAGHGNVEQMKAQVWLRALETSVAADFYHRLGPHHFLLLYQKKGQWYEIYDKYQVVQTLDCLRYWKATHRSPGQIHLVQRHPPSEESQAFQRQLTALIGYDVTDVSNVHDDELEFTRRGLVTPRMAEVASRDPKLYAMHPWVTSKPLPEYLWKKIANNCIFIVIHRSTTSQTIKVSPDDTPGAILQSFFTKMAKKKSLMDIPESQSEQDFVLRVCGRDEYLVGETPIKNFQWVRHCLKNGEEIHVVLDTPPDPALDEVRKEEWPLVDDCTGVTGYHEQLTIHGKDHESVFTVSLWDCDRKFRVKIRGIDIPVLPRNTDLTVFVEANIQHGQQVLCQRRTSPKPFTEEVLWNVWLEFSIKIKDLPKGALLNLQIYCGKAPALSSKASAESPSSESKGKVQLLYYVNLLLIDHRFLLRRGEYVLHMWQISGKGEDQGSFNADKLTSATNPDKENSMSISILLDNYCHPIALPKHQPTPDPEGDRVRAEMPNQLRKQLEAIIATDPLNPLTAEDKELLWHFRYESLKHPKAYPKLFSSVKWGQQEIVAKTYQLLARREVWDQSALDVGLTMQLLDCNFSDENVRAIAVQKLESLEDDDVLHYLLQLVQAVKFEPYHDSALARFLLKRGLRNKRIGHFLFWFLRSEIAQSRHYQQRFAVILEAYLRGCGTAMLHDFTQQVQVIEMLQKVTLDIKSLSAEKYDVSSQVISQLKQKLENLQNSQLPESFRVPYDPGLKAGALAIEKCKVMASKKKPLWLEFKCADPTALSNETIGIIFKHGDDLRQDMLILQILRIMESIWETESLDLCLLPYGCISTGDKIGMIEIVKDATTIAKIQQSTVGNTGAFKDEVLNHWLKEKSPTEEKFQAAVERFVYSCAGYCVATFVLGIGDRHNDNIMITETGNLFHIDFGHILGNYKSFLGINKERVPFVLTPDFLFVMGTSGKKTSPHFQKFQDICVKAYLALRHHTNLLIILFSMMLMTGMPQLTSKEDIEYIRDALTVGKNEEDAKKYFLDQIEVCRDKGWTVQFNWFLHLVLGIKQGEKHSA
reported endpoint: IC50

Worked set:
compound=Cc1cccc2cc(Cn3nc(-c4cn[nH]c4)c4c(N)ncnc43)n(-c3ccccc3C(C)C)c(=O)c12 value="< 100 nM"
compound=Cc1ccccc1-n1c(Cn2nc(C(N)=O)c3c(N)ncnc32)cc2cccc(C)c2c1=O value="< 1000 nM"
compound=COc1cc(F)cc(-c2nn(Cc3cc4cccc(C)c4c(=O)n3-c3ccccc3C)c3ncnc(N)c23)c1 value="< 10000 nM"
compound=Cc1ccccc1-n1c(Cn2nc(CCC(N)=O)c3c(N)ncnc32)cc2cccc(C)c2c1=O value="< 10000 nM"
compound=Cc1cccnc1-n1c(Cn2nc(-c3cc(O)cc(F)c3)c3c(N)ncnc32)cc2ccccc2c1=O value="< 1000 nM"
compound=Cc1cccc2cc(Cn3nc(-c4ccc(O)c(F)c4)c4c(N)ncnc43)n(-c3ccccc3F)c(=O)c12 value="< 100 nM"
compound=Cc1cccc2cc(Cn3nc(C4=CCOCC4)c4c(N)ncnc43)n(-c3ccccc3)c(=O)c12 value="> 10000 nM"
compound=Cc1cccc2cc(Cn3nc(-c4ccc(Cl)c(O)c4)c4c(N)ncnc43)n(C3CCCC3)c(=O)c12 value="< 1000 nM"
compound=CCc1nn(Cc2cc3cccc(C)c3c(=O)n2-c2ccccc2)c2ncnc(N)c12 value="< 10000 nM"
compound=CCc1ccccc1-n1c(Cn2nc(-c3cccc(O)c3)c3c(N)ncnc32)cc2cccc(C)c2c1=O value="< 100 nM"

### Prompt Suppose we examine the compound Cc1cccc2cc(Cn3nc(-c4cccc(O)c4)c4c(N)ncnc43)n(-c3ccccc3)c(=O)c12 ; what IC50 value has been reported?
### Response < 100 nM

### Prompt Suppose we examine the compound Cc1cccc2cc(C(C)Nc3ncnc4[nH]cnc34)n(C(C)C)c(=O)c12 (stereo not shown) ; what IC50 value has been reported?
### Response < 1000 nM

Measured values drawn from patent US20140120083A1 for this set.
